# Test system: kochia (Kochia scoparia)
# Method description: Test B pre-/postemergence plant response
# Format: in vivo
# Condition parameters: Preemergence, 62 g ai/ha; scale 0 to 100 (0 no effect, 100 complete control)
Measured Plant response rating, Kochia, listed per entry.

# Molecule, Test system, Plant response rating, Kochia
records = [
    ("COCCCn1c(-c2cc(F)cc(F)c2)ncc(C(=O)C2=C(O)CCCC2=O)c1=O [Compound 120]", "kochia (Kochia scoparia)", 20),
    ("O=C1CCCC(O)=C1C(=O)c1cnc(-c2cccc(Cl)c2)n(-c2ccc(Cl)cc2)c1=O [Compound 64]", "kochia (Kochia scoparia)", 0),
    ("CCCCc1ncc(C(=O)C2=C(O)CCCC2=O)c(=O)n1-c1ccc(C)cc1 [Compound 67]", "kochia (Kochia scoparia)", 70),
    ("CCCn1c(-c2cccs2)ncc(C(=O)C2=C(O)CCCC2=O)c1=O [Compound 77]", "kochia (Kochia scoparia)", 90),
    ("O=C1CCCC(O)=C1C(=O)c1cnc(-c2ccccc2)n(-c2ccccc2F)c1=O [Compound 26]", "kochia (Kochia scoparia)", 100),
    ("Cc1ccccc1-n1c(-c2ccccc2)ncc(C(=O)C2=C(O)CCCC2=O)c1=O [Compound 12]", "kochia (Kochia scoparia)", 100),
]

---

# System: velvetleaf (Abutilon theophrasti)
# Method description: Test B pre-/postemergence plant response
# Format: in vivo
# Condition parameters: Postemergence, 62 g ai/ha; scale 0 to 100 (0 no effect, 100 complete control)
Recorded Plant response rating, Velvetleaf by entry

# Compound, Plant response rating, Velvetleaf
data = [
    ("COc1ccc(-n2c(-c3ccccc3)ncc(C(=O)C3=C(O)CCCC3=O)c2=O)cc1OC [Compound 218]", 100),
    ("CCc1ccc(-n2c(-c3ccccc3)ncc(C(=O)C3=C(O)CCCC3=O)c2=O)cc1 [Compound 219]", 90),
    ("CCCCn1c(-c2cc(F)cc(F)c2)ncc(C(=O)C2=C(O)C3CCC(C3)C2=O)c1=O (stereo not drawn) [Compound 245]", 100),
    ("COCCCn1c(-c2cccc(F)c2)ncc(C(=O)C2=C(O)C3CCC(C3)C2=O)c1=O (stereo not drawn) [Compound 238]", 90),
    ("O=C1CCCC(O)=C1C(=O)c1cnc(-c2ccc(F)cc2)n(C2CCCCC2)c1=O [Compound 197]", 80),
    ("CCc1ccccc1-n1c(-c2ccccc2)ncc(C(=O)C2=C(O)CCCC2=O)c1=O [Compound 255]", 98),
]

---

# Tested on: large crabgrass (Digitaria sanguinalis)
# Method description: Test A pre-/postemergence plant response
# Type: in vivo
# Condition parameters: Preemergence, 125 g ai/ha; 0 to 100 scale, 0 = no effect, 100 = complete control
Mark each entry true if its Plant response rating, Crabgrass, Large sits below 50, and false for all others.

# Compound, Cat
data = [
    ("CCCn1c(-c2cc(C)cc(C)c2)ncc(C(=O)C2=C(O)CCCC2=O)c1=O [Compound 156]", "true"),
    ("CCc1ccc(-n2c(-c3cc(F)cc(F)c3)ncc(C(=O)C3=C(O)CCCC3=O)c2=O)cc1 [Compound 158]", "false"),
    ("O=C1CCCC(O)=C1C(=O)c1cnc(-c2cccc(Cl)c2)n(-c2ccc(Cl)cc2)c1=O [Compound 64]", "false"),
    ("O=C1CCCC(O)=C1C(=O)c1cnc(-c2ccccc2)n(C2CCCCCCCCCCC2)c1=O [Compound 165]", "true"),
    ("CCCc1ncc(C(=O)C2=C(O)CCCC2=O)c(=O)n1CC1CCCO1 (centres unmarked) [Compound 74]", "false"),
    ("CSc1ncc(C(=O)C2=C(O)CCCC2=O)c(=O)n1-c1ccccc1 [Compound 30]", "true"),
    ("O=C1CCCC(O)=C1C(=O)c1cnc(-c2cc(F)cc(F)c2)n(C2CCCCC2)c1=O [Compound 181]", "false"),
]

---

# Test system: kochia (Kochia scoparia)
# Method description: Test B pre-/postemergence plant response
# Assay type: in vivo
# Condition parameters: 31 g ai/ha, postemergence; scale 0 to 100, 0 is no effect, 100 is complete control
In this section we review reported Plant response rating, Kochia values for a set of compounds.
Measured parameter: Plant response rating, Kochia

# Compound, Test system, Numeric readout
records = [
    ("CCCCc1ncc(C(=O)C2=C(O)CCCC2=O)c(=O)n1-c1ccc(C)cc1", "kochia (Kochia scoparia)", 75),
    ("CC(C)n1c(-c2ccccc2)ncc(C(=O)C2=C(O)CCCC2=O)c1=O", "kochia (Kochia scoparia)", 80),
    ("CCCn1c(-c2ccc(F)cc2)ncc(C(=O)C2=C(O)CCCC2=O)c1=O", "kochia (Kochia scoparia)", 65),
    ("CCCc1ncc(C(=O)C2=C(O)CCCC2=O)c(=O)n1-c1ccccc1C", "kochia (Kochia scoparia)", 75),
    ("COCCCn1c(-c2cccc(C)c2)ncc(C(=O)C2=C(O)CCCC2=O)c1=O", "kochia (Kochia scoparia)", 45),
    ("COCC(C)n1c(-c2ccccc2)ncc(C(=O)C2=C(O)CCCC2=O)c1=O (stereo not drawn)", "kochia (Kochia scoparia)", 98),
    ("Cc1cc(-n2c(-c3ccccc3)ncc(C(=O)C3=C(O)CCCC3=O)c2=O)ccc1F", "kochia (Kochia scoparia)", 45),
    ("O=C1CCCC(O)=C1C(=O)c1cnc(-c2ccsc2)n(-c2ccccc2)c1=O", "kochia (Kochia scoparia)", 90),
    ("CCCc1ncc(C(=O)C2=C(O)CCCC2=O)c(=O)n1CC1CCCO1 (stereo not drawn)", "kochia (Kochia scoparia)", 75),
]

---

# Tested on: woolly cupgrass (Eriochloa villosa)
# Method description: Test B pre-/postemergence plant response
# Assay type: in vivo
# Condition parameters: Postemergence, 250 g ai/ha; scale 0 to 100
Quick reference for Cupgrass, Woolly plant response rating among some molecules

# Molecule, Cupgrass, Woolly plant response rating
rows = [
    ("Cc1c(Cl)cccc1-n1c(-c2ccccc2)ncc(C(=O)C2=C(O)CCCC2=O)c1=O [Compound 40]", 98),
    ("COc1ccc(-n2c(-c3ccccc3)ncc(C(=O)C3=C(O)CCCC3=O)c2=O)cc1 [Compound 4]", 100),
    ("O=C1CCCC(O)=C1C(=O)c1cnc(-c2ccccc2)n(-c2ccccc2F)c1=O [Compound 26]", 85),
    ("Cc1cc(C)cc(-n2c(-c3ccccc3)ncc(C(=O)C3=C(O)CCCC3=O)c2=O)c1 [Compound 33]", 90),
    ("O=C1CCCC(O)=C1C(=O)c1cnc(-c2ccccc2)n(-c2cccc(Br)c2)c1=O [Compound 38]", 100),
]

---

# System: barnyardgrass (Echinochloa crus-galli)
# Method description: Test A pre-/postemergence plant response
# Type: in vivo
# Condition parameters: Postemergence, 125 g ai/ha; 0 to 100 scale where 0 is no effect and 100 is complete control
Measured parameter: Plant response rating, Barnyardgrass

# Molecule, Numeric readout
measured = [
    ("CCn1c(-c2ccccc2)ncc(C(=O)C2=C(O)C3CCC(C3)C2=O)c1=O (centres unmarked)", 90),
    ("O=C1CCCC(O)=C1C(=O)c1cnc(C2CCCCC2)n(-c2ccccc2)c1=O", 10),
    ("COCCn1c(-c2ccsc2)ncc(C(=O)C2=C(O)C3CCC(C3)C2=O)c1=O (centres unmarked)", 90),
    ("COCCCn1c(-c2cccc(C)c2)ncc(C(=O)C2=C(O)CCCC2=O)c1=O", 90),
    ("CCCCn1c(-c2cccc(F)c2)ncc(C(=O)C2=C(O)C3CCC(C3)C2=O)c1=O (centres unmarked)", 100),
    ("CCCn1c(-c2cccc(Cl)c2)ncc(C(=O)C2=C(O)CCCC2=O)c1=O", 90),
    ("CC(C)CC(=O)OC1=C(C(=O)c2cnc(-c3ccccc3)n(-c3ccccc3)c2=O)C(=O)CCC1", 70),
    ("O=C1CCCC(O)=C1C(=O)c1cnc(-c2cccc(C(F)(F)F)c2)n(C2CCCCC2)c1=O", 70),
]

---

# Test system: johnsongrass (Sorghum halepense)
# Method description: Test B pre-/postemergence plant response
# Format: in vivo
# Condition parameters: Postemergence, 125 g ai/ha; visual rating after 13 to 15 days, scale 0 (no effect) to 100 (complete control)

# Chem smiles, Plant response rating, Johnsongrass
records = [
    ("O=C1CCCC(O)=C1C(=O)c1cnc(-c2cccc(Cl)c2)n(-c2ccc(Cl)cc2)c1=O", 100),
    ("CCCCc1ncc(C(=O)C2=C(O)CCCC2=O)c(=O)n1-c1ccc(C)cc1", 5),
    ("O=C1CCCC(O)=C1C(=O)c1cnc(-c2ccccc2Br)n(-c2ccccc2)c1=O", 98),
    ("Cc1cccc(Cl)c1-n1c(-c2ccccc2)ncc(C(=O)C2=C(O)CCCC2=O)c1=O", 70),
    ("Cc1ccccc1-n1c(-c2ccccc2)ncc(C(=O)C2=C(O)CCCC2=O)c1=O", 60),
    ("Cc1ccc(-n2c(-c3ccccc3)ncc(C(=O)C3=C(O)CCCC3=O)c2=O)cc1", 98),
    ("Cc1ccc(-c2ncc(C(=O)C3=C(O)CCCC3=O)c(=O)n2-c2ccccc2)cc1", 10),
]
